- System: Vero E6
- PROTOCOL_SUMMARY: cell viability relative to DMSO; higher = less toxic
- MEASUREMENT_PARAMETERS: 72 h; 1 nM
cell viability values by entry

MOLECULE: C/C(O)=C(\C#N)C(=O)Nc1ccc(C(F)(F)F)cc1 [teriflunomide]
cell viability / %: 102

MOLECULE: CC(C)C[C@H](NC(=O)[C@@H](COC(C)(C)C)NC(=O)[C@H](Cc1ccc(O)cc1)NC(=O)[C@H](CO)NC(=O)[C@H](Cc1c[nH]c2ccccc12)NC(=O)[C@H](Cc1cnc[nH]1)NC(=O)[C@@H]1CCC(=O)N1)C(=O)N[C@@H](CCCNC(=N)N)C(=O)N1CCC[C@H]1C(=O)NNC(N)=O [goserelin-acetate]
cell viability / %: 91

MOLECULE: CC(=O)Oc1ccccc1C(=O)Nc1ncc([N+](=O)[O-])s1 [nitazoxanide]
cell viability / %: 98.2

MOLECULE: CC=C1C(=O)C[C@H]2[C@@H]3CCC4=CC(=O)CC[C@]4(C)[C@H]3CC[C@]12C
cell viability / %: 110

MOLECULE: Cc1c2oc3c(C)ccc(C(=O)N[C@@H]4C(=O)N[C@H](C(C)C)C(=O)N5CCC[C@H]5C(=O)N(C)CC(=O)N(C)[C@@H](C(C)C)C(=O)O[C@@H]4C)c3nc-2c(C(=O)N[C@@H]2C(=O)N[C@H](C(C)C)C(=O)N3CCC[C@H]3C(=O)N(C)CC(=O)N(C)[C@@H](C(C)C)C(=O)O[C@@H]2C)c(N)c1=O
cell viability / %: 101

MOLECULE: Cc1cccc(C)c1OCC(=O)N[C@@H](Cc1ccccc1)[C@@H](O)C[C@H](Cc1ccccc1)NC(=O)[C@H](C(C)C)N1CCCNC1=O
cell viability / %: 103

MOLECULE: CCCCNC(=O)NS(=O)(=O)c1ccc(C)cc1 [tolbutamide]
cell viability / %: 104

MOLECULE: CC(C)(C)n1nc(-c2cccc3ccccc23)c2c(N)ncnc21
cell viability / %: 107

MOLECULE: Oc1ccc2ccccc2c1SSc1c(O)ccc2ccccc12
cell viability / %: 99.7

MOLECULE: Cc1c(C(=O)NN2CCCCC2)nn(-c2ccc(Cl)cc2Cl)c1-c1ccc(Cl)cc1
cell viability / %: 92.4

MOLECULE: O=C(Nc1ccccc1)c1cc([N+](=O)[O-])ccc1Cl
cell viability / %: 103

MOLECULE: CC1(C)CC(Oc2ccc(-c3ccc(-c4cn[nH]c4)cc3O)nn2)CC(C)(C)N1
cell viability / %: 101
